Molecular target: T1, NLpoly 11S (12-A51T)
T1 chain: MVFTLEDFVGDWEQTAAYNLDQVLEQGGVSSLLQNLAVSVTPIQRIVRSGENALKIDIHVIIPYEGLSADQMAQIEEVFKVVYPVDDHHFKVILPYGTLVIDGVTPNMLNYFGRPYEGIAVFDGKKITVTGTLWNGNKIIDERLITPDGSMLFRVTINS
Conditions: modification not given
MEASUREMENT TYPE: pKd
pKd is a log-scale quantity: -log10 of the concentration expressed in molar.

Ask: Query (binder): NVSGWRLFKKISN [NLpep78] ; field requested: pKd
Reply: 4.59

# credit: patent US20140348747A1
